tested on: RXF 393 renal; assay: NCI tumour cell line growth inhibition, 48 h; in the data active = GI50 below about 0.43 µM; inactive = the rest
Outcome codes: active, inactive

[
  {
    "molecule": "C[C@@H]1O[C@@H](O[C@@H]2[C@@H](O)[C@H](OCCc3ccc(O)c(O)c3)O[C@H](CO)[C@H]2OC(=O)/C=C/c2ccc(O)c(O)c2)[C@H](O)[C@H](OC2OC[C@](O)(CO)[C@H]2O)[C@H]1O (stereo partly specified)",
    "label": "inactive"
  },
  {
    "molecule": "O=Nc1c(-c2c(O)[nH]c3ncccc23)[nH]c2ccccc12",
    "label": "inactive"
  },
  {
    "molecule": "O=C(CN1N=C(c2ccc(F)cc2)CCC1=O)Nc1nc2ccccc2s1",
    "label": "inactive"
  },
  {
    "molecule": "CN1CCN(CCCCCN=c2cc3c(=O)n(CCCCCN4CCN(C)CC4)c(=O)c4c(NCCCCCN5CCN(C)CC5)cc5c(O)n(CCCCCN6CCN(C)CC6)c(=O)c2c5c4-3)CC1",
    "label": "inactive"
  },
  {
    "molecule": "O=C(Nc1ccccc1OC(=O)c1ccccc1)c1ccccc1",
    "label": "inactive"
  },
  {
    "molecule": "COc1cc2c(cc1F)C(c1ccccc1Cl)=Nc1c(n[nH]c1C)N2",
    "label": "active"
  },
  {
    "molecule": "CN1CCc2nc3sc(C(N)=O)c(N)c3c(-c3cccs3)c2C1",
    "label": "inactive"
  },
  {
    "molecule": "CCN1C(=O)N(CC)C2C1NN=c1s/c(=C\\c3ccc(F)cc3)c(=O)n12 (stereo unspecified)",
    "label": "active"
  },
  {
    "molecule": "COc1cc2cc(Oc3ccc(NC(=O)c4ccc(Cl)c(Cl)c4)cc3)c(C)nc2cc1OC",
    "label": "inactive"
  },
  {
    "molecule": "N#CCCNc1nonc1-c1nc2ccccc2n1CC(=O)c1ccc(NC(=O)[C@@H](N)CCCCN)cc1",
    "label": "active"
  },
  {
    "molecule": "O=c1c2cc(F)ccc2sc2c(NCCCNCCO)nc3ccccc3c12",
    "label": "inactive"
  },
  {
    "molecule": "COc1ccc(/C=C(\\C)[N+](=O)[O-])cc1OC",
    "label": "inactive"
  },
  {
    "molecule": "FC(F)(F)c1cccc(-c2nn3ncccc3c2-c2ccnc(Nc3ccc4c(c3)OCCO4)n2)c1",
    "label": "inactive"
  },
  {
    "molecule": "Cc1ccncc1C(N)=O",
    "label": "inactive"
  },
  {
    "molecule": "COc1cc(C(=O)Nc2cc(O)c(CC=C(C)C)c(O)c2)cc2c1O[C@]1(C)CC[C@@H](O)C(C)(C)[C@H]1C2",
    "label": "active"
  },
  {
    "molecule": "CCc1c(C)nc2sc3c(N)ncnc3c2c1C",
    "label": "inactive"
  }
]
